System: NOMO1
Assay: cell viability relative to DMSO control; higher = less cytotoxic
Conditions: RPMI 5 mM glucose + 10% dialyzed FBS; 48 h; 5.12 µM
Test readout: cell viability (%)
Hi! Could you send only the number? It should be in %, unit omitted.

# count of solved cases: 5
Asked: Test system NOMO1; read-out cell viability; what value for CN(C)CCc1c[nH]c2ccc(C[C@H]3COC(=O)N3)cc12 ?
Given back: 109

Asked: Test system NOMO1; read-out cell viability; what value for NC(=O)c1ncn([C@@H]2O[C@H](CO)[C@@H](O)[C@H]2O)n1 ?
Given back: 58.2

Asked: Test system NOMO1; read-out cell viability; what value for CC1(C)CCC(=C(CN2CCN(CC2)C3=CC=C(C=C3)C(=O)N[S+]([O-])(=O)C4=CC(=C(N[C@H](CCN5CCOCC5)CSC6=CC=CC=C6)C=C4)[S+]([O-])(=O)C(F)(F)F)\C1)/C7=CC=C(Cl)C=C7 ?
Given back: 24.7

Asked: Test system NOMO1; read-out cell viability; what value for CN1CCC(CC1)COC2=CN=C(N=C2)C3=CC(=CC=C3)CN4/N=C(\C=C/C4=O)C5=CC(=CC=C5)C#N ?
Given back: 118

Asked: Test system NOMO1; read-out cell viability; what value for NC(CO)(CO)CCc1ccc(Sc2cccc(OCc3ccccc3)c2)cc1Cl ?
Given back: 113

New cases:
Asked: Test system NOMO1; read-out cell viability; what value for Cc1cccc(C)c1OCC(=O)N[C@@H](Cc1ccccc1)[C@@H](O)C[C@H](Cc1ccccc1)NC(=O)[C@H](C(C)C)N1CCCNC1=O ?
Given back: 89.4

Asked: Test system NOMO1; read-out cell viability; what value for Cc1c(Cn2c(C)nc3c(C(=O)O)cc(N4CCOCC4)cc32)cccc1C(F)(F)F ?
Given back: 96.6

Asked: Test system NOMO1; read-out cell viability; what value for Cn1c(Nc2ccc(C(F)(F)F)cc2)nc2cc(Oc3ccnc(-c4nc(C(F)(F)F)c[nH]4)c3)ccc21 ?
Given back: 104
